target: SHP2-C SH2; assay: SH2 binding enrichment of the phosphorylated peptide, bacterial display (enrichment ratio); higher = better substrate or ligand; peptides without Tyr show the background
MEASUREMENT KIND: SH2 binding enrichment

{"RESIDUE STRING": "NKVKFYIPFMN [NCR1_Y84_D87Y_YF]", "RECORDED VALUE": 1.22}
{"RESIDUE STRING": "VQEDIYDEFVV [ALDH2_Y332_E337V]", "RECORDED VALUE": 0.822}
{"RESIDUE STRING": "DFGSGYPNDPK [RNASEH2A_Y210_YF]", "RECORDED VALUE": 0.712}
{"RESIDUE STRING": "ACCLLYRGDVV [TUBA4A_Y319]", "RECORDED VALUE": 0.849}
{"RESIDUE STRING": "TKQLTYEEQDL [PIK3C3_Y310]", "RECORDED VALUE": 0.686}
{"RESIDUE STRING": "IVRSLYEDPED [VHL_Y185_L188P]", "RECORDED VALUE": 0.815}
{"RESIDUE STRING": "QDGFSYPSRQM [LDLR_Y847_YF]", "RECORDED VALUE": 0.725}
{"RESIDUE STRING": "MVSLFYGTAIF [OR10C1_Y251_L255I]", "RECORDED VALUE": 0.756}

P. SYTDPYAQPPL [KMT2D_Y2378]
Q. RKRQFYLFKGK [RSPO4_Y112_C107R_YF]
R. DRLASYRDKVR [KRT12_Y139_L140R]
Arrange these 3 sequences in increasing order of SH2 binding enrichment. Your task in answering is to list the labels in the requested order.
Q, P, R

A. GVTLLCFGRFN [ADGRD1_Y85_Y85C_YF]
B. EIIPFYGMSTY [FNDC3B_Y175]
Pick one: A or B . Which one has the lower reported SH2 binding enrichment? I would appreciate it if you answered with the label of your choice.
B

====

Collected phosphorylation enrichment values appear next to each entry.
system: Fer (mouse); assay: phosphorylation enrichment, bacterial display (enrichment ratio); higher = better substrate or ligand; peptides without Tyr show the background
No unit in the answer, only the number.

{"RESIDUE STRING": "SAEKAYHEQLS [TUBA1A_Y282]", "SYSTEM": "Fer (mouse)", "MEASUREMENT KIND": "phosphorylation enrichment", "RECORDED VALUE": 0.425}

Looking for the measured phosphorylation enrichment of RLLVFYPWTQR [HBB_Y36_V35F] , can you help?
0.65

Again, but for AVLQLYIFVAT [CFTR_Y1014_P1013L]
0.573

Please do the same for AKLKDYYIFNK [CCDC42_Y149] as well.
0.457

====

molecular target: SHP2-C SH2; experiment: SH2 binding enrichment of the phosphorylated peptide, bacterial display (enrichment ratio); higher = better substrate or ligand; peptides without Tyr show the background
MEASUREMENT KIND: SH2 binding enrichment

{"RESIDUE STRING": "VFAPDFIAGVS [NOB1_Y366_Y366F]", "RECORDED VALUE": 0.727}
{"RESIDUE STRING": "LRLSSYSTTIR [CYP7B1_Y365]", "RECORDED VALUE": 0.823}
{"RESIDUE STRING": "RAHARYCADAR [ACOT4_Y52]", "RECORDED VALUE": 0.746}
{"RESIDUE STRING": "VDASFYGGRGV [ANTXR2_Y381_YF]", "RECORDED VALUE": 0.576}
{"RESIDUE STRING": "LQLLGDRPVYS [CHST6_Y358_Y358D]", "RECORDED VALUE": 0.792}
{"RESIDUE STRING": "ALRASYTPSPV [ESS2_Y418_A423V]", "RECORDED VALUE": 0.557}
{"RESIDUE STRING": "NEKNIYRVPLM [BMPR2_Y247]", "RECORDED VALUE": 0.755}

====

target: Grb2 SH2 (UniProt P62993); assay: SH2 binding enrichment of the phosphorylated peptide, bacterial display (enrichment ratio); higher = better substrate or ligand; peptides without Tyr show the background
MEASUREMENT KIND: SH2 binding enrichment

{"RESIDUE STRING": "QTPVLYAMLFH [MPZ_Y220_D224Y_YF]", "MEASUREMENT KIND": "SH2 binding enrichment", "RECORDED VALUE": 1.03}
{"RESIDUE STRING": "TKQLTYEEQDL [PIK3C3_Y310]", "MEASUREMENT KIND": "SH2 binding enrichment", "RECORDED VALUE": 0.786}

a. GEFHVYRHLRR [PRKRIP1_Y82]
b. RNLDTYQKRLR [PLA2G2D_Y126]
Record comparison, field SH2 binding enrichment: mark the lower of a and b . Give the chosen item's label as your response.
a
(a: 0.601, b: 0.918)

====

target: FGFR1 (UniProt P11362); experiment: phosphorylation enrichment, bacterial display (enrichment ratio); higher = better substrate or ligand; peptides without Tyr show the background
Sequence (P11362 whole entry, looked up): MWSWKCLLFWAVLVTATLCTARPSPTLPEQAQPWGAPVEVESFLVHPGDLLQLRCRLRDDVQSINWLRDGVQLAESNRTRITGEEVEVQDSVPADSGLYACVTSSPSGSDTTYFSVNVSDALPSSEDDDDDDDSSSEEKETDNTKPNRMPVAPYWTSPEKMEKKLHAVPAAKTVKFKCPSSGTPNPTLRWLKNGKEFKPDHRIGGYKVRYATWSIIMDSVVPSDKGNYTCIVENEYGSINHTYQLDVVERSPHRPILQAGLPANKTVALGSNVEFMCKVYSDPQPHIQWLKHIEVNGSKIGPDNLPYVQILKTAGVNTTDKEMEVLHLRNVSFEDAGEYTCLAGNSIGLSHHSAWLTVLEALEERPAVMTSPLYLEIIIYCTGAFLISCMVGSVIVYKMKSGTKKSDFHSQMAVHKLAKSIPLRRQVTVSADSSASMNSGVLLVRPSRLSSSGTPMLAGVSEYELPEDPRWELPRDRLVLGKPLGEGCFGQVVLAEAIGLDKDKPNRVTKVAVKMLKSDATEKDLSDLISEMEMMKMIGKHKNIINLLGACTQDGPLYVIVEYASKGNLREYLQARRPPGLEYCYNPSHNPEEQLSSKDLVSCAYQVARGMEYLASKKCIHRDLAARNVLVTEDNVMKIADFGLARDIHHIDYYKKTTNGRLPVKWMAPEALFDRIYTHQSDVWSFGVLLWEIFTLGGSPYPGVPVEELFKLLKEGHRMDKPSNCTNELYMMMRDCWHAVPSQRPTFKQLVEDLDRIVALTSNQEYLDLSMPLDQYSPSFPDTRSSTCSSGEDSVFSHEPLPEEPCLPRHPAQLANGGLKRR
MEASUREMENT KIND: phosphorylation enrichment
Answer using only a numeral; do not append any unit.

{"RESIDUE STRING": "GCRSKSVGLWG [KCNQ1_Y184_Y184S]", "SYSTEM": "FGFR1 (UniProt P11362)", "RECORDED VALUE": 0.429}
{"RESIDUE STRING": "DEDEEYEFMNR [ERBB3_Y1197_YF]", "SYSTEM": "FGFR1 (UniProt P11362)", "RECORDED VALUE": 0.724}
{"RESIDUE STRING": "NSAFFYKTAEE [CCT6B_Y250_G247A]", "SYSTEM": "FGFR1 (UniProt P11362)", "RECORDED VALUE": 0.452}
{"RESIDUE STRING": "WTAHSYRMGSA [ARHGEF7_Y785_T790A]", "SYSTEM": "FGFR1 (UniProt P11362)", "RECORDED VALUE": 0.556}
{"RESIDUE STRING": "CTTIHYNFMCF [TP53_Y234_N239Y_YF]", "SYSTEM": "FGFR1 (UniProt P11362)", "RECORDED VALUE": 0.621}
{"RESIDUE STRING": "LGRTVYADCLA [ABCA4_Y2063_L2060R]", "SYSTEM": "FGFR1 (UniProt P11362)", "RECORDED VALUE": 0.918}
{"RESIDUE STRING": "GRDQPYSGTGD [TYRO3_Y828_A831T]", "SYSTEM": "FGFR1 (UniProt P11362)", "RECORDED VALUE": 0.49}
{"RESIDUE STRING": "EEQKKYYNATK [SCN5A_Y1494_M1498T]", "SYSTEM": "FGFR1 (UniProt P11362)", "RECORDED VALUE": 1.29}
{"RESIDUE STRING": "WRPFGYPHRRR [BCS1L_Y181_R183H]", "SYSTEM": "FGFR1 (UniProt P11362)", "RECORDED VALUE": 0.507}
{"RESIDUE STRING": "LSVISYDLGMF [GBA3_Y174_M172I]", "SYSTEM": "FGFR1 (UniProt P11362)", "RECORDED VALUE": 0.328}

Need phosphorylation enrichment, item ARVANYQRDGP [CAT_Y386]
0.524

Entry FTFTSYFMHWV [IGHV1-46_Y51_YF] please
0.5

Next entry: ETVHRYVELLD [AP1S3_Y87_I83T]
0.591

Please answer likewise for IVRSLYEDPED [VHL_Y185_L188P]
0.502

Thanks! And FADIAYNFRDG [PAH_Y166_H170D_YF] ?
0.41

Continue with TFQFKYPEGSS [TGM4_Y440_E437Q_YF]
0.521

Now this one: MANFVYKAGPS [MAML2_Y515_M514V_YF]
0.517

Repeat with TLQIMYGCDVG [HLA-A_Y123_I119L]
0.619

====

Reported phosphorylation enrichment values are given for each entry in this list.
test system: AncSZ; test: phosphorylation enrichment, bacterial display (enrichment ratio); higher = better substrate or ligand; peptides without Tyr show the background
API doc: respond with a numeric literal and nothing else, no unit.

Use these answered entries as a reference point.
{"RESIDUE STRING": "EFISEFCGEII [EZH2_Y641_Y641F]", "MEASUREMENT KIND": "phosphorylation enrichment", "RECORDED VALUE": 1.52}
{"RESIDUE STRING": "FQCKHYACIRQ [TIMP3_Y182_S179C_YF]", "MEASUREMENT KIND": "phosphorylation enrichment", "RECORDED VALUE": 0.542}

# value lookup — system AncSZ, readout phosphorylation enrichment, item RKRQFYLFKGK [RSPO4_Y112_C107R_YF]
1.15

Try KEAQVYQAFKL [SUCLG2_Y343] next.
1.1

Again, but for EAIAKYDFKAT [GRB2_Y7]
0.658

Further, for ETEMLYGSARR [PRC1_Y464_P468R] ?
0.886

Would you kindly repeat that for AHAGGYGAEAL [HBA1_Y25_E24G] ?
0.63
